Tested on: DeltatarO mutant
METHOD: S. aureus survival, RN4220 and DeltatarO strains – OD600, teichoic acid synthesis inhibitors, primary screen (AID 463173)
SETUP CONDITIONS: S. aureus RN4220 wild type/DeltatarO growth, OD600, 18 h, screened at 18.75 µg/mL (by protocol)
The whole screen tested about 52,000 compounds, of which about 4,300 (8.3%) were called active. Rule as the data show it: active = survival mostly below about 52% (no sharp cut-off); inactive = mostly above about 56%. The list comes from a sample in which actives are over-represented; it also holds close analogues and randomly drawn compounds.
The reply should be one of these categories: yes (1) (active), no (0) (inactive)

Answered examples (6):
Query string: Per the assay record, what outcome was assigned to "Cc1ccc(N2CCN(C(=O)c3ccc(Nc4nc5ccccc5n5nnnc45)cc3)CC2)c(C)c1" ?
Result string: no (0)

Query string: Per the assay record, what outcome was assigned to "O=C(Cn1cc(SCc2ccccc2F)c2ccccc21)N1CCCCCC1" ?
Result string: no (0)

Query string: Per the assay record, what outcome was assigned to "Cc1ccc(S(=O)(=O)c2nc(-c3ccc(Cl)cc3)oc2N2CCCCCC2)cc1" ?
Result string: yes (1)

Query string: Per the assay record, what outcome was assigned to "CC(C)(C)OC(=O)N1CCC(c2nnc(SCc3ccccc3F)o2)CC1" ?
Result string: no (0)

Query string: Per the assay record, what outcome was assigned to "CCOC(=O)c1scc(-c2ccccc2)c1S(=O)(=O)N1CCN(c2ccccc2OC)CC1" ?
Result string: no (0)

Query string: Per the assay record, what outcome was assigned to "O=C(NCCO)C(=O)Nc1c2c(nn1-c1ccc(F)cc1)CSC2" ?
Result string: no (0)

More entries:
Query string: Per the assay record, what outcome was assigned to "c1ccc(CNc2nnnn2-c2ccccc2)cc1" ?
Result string: no (0)

Query string: Per the assay record, what outcome was assigned to "CCN(C(=O)c1cc2c(s1)-c1c(C)cccc1OC2)c1cc(C)ccc1C" ?
Result string: yes (1)

Query string: Per the assay record, what outcome was assigned to "CC1CCN(C(=O)CSc2nc3c([nH]c4ccccc43)c(=O)n2-c2ccccc2)CC1" ?
Result string: no (0)

Query string: Per the assay record, what outcome was assigned to "CCNC(=O)c1sc2ccccc2c1Cl" ?
Result string: no (0)

Query string: Per the assay record, what outcome was assigned to COc1ccc(CNC(=O)CCS(=O)(=O)c2ccc3c(c2)CC(C)N3C(=O)C2CC2)cc1 (configuration not stated) ?
Result string: no (0)

###

System: DeltatarO mutant
METHOD: S. aureus survival, RN4220 and DeltatarO strains – OD600, teichoic acid synthesis inhibitors, primary screen (AID 463173)
SETUP CONDITIONS: S. aureus RN4220 wild type/DeltatarO growth, OD600, 18 h, screened at 18.75 µg/mL (by protocol)
About 4,300 (8.3%) of roughly 52,000 compounds were called active. No stated cut-off is given here; in the data, active means survival mostly below about 52% (no sharp cut-off); inactive means mostly above about 56%. This excerpt belongs to a sample that is enriched for actives.
The reply should be one of these categories: TRUE (active), FALSE (inactive)

Query string: Per the assay record, what outcome was assigned to "CCN(C(=O)Cc1c(C(=O)O)[nH]c2ccccc12)c1ccc(OC)cc1" ?
Result string: FALSE

Query string: Per the assay record, what outcome was assigned to "Cc1ccc2[nH]c3c(=O)n(CC(=O)N(C)c4cc(Cl)ccc4C)ncc3c2c1" ?
Result string: FALSE

Query string: Per the assay record, what outcome was assigned to "Cc1ccc(NC(=O)CN2CCCN(Cc3ccccc3Cl)S2(=O)=O)c(C)c1" ?
Result string: TRUE

Query string: Per the assay record, what outcome was assigned to "Cc1ccc(C)c(N(C)C(=O)Cc2c(C(=O)O)[nH]c3ccc(Cl)cc23)c1" ?
Result string: TRUE

Query string: Per the assay record, what outcome was assigned to "CCc1cccc(C)c1NC(=O)CN1CCCN(Cc2ccccc2Cl)S1(=O)=O" ?
Result string: FALSE

More entries:
Query string: Per the assay record, what outcome was assigned to "COc1ccc(N(Cc2cccs2)C(=O)COc2cccc(Cl)c2)cc1" ?
Result string: TRUE

Query string: Per the assay record, what outcome was assigned to "Cc1ccc(NC(=O)CN2CCCN(Cc3cc(C)ccc3C)S2(=O)=O)c(Cl)c1" ?
Result string: FALSE
